- TARGET: human SGLT1 (hSGLT1) (human)
- Sequence (P13866 whole entry, looked up): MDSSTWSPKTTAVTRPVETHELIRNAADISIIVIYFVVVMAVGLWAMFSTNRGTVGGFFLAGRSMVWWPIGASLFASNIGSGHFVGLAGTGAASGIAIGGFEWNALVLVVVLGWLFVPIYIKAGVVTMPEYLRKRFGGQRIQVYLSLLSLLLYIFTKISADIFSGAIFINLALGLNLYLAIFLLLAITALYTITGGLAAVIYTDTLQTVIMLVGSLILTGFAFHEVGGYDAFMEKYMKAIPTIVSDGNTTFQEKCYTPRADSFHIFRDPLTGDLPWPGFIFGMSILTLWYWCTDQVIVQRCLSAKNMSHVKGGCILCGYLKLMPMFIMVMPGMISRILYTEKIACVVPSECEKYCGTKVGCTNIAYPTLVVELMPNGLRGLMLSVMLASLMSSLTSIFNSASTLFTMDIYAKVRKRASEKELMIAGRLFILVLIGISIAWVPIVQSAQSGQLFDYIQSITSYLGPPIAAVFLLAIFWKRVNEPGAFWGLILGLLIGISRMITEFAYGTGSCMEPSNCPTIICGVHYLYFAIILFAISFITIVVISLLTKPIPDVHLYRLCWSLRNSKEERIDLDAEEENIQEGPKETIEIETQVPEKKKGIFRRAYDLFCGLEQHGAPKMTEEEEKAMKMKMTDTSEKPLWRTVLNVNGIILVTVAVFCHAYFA
- EXPERIMENT SUMMARY: primary screen, percent of control activity; higher = less effect of the substance
- Set-up: single well
- EXPERIMENTAL SETUP: 50 µM
The campaign covered roughly 1,900 compounds. About 40 (2%) showed an effect of 50% or more. The sample holds strong results, similar compounds and a random draw of the others, so the mix is not that of the screen.
READOUT TYPE: NORMALIZED SGLT1 ACTIVITY (%)
Output spec: scalar in %, unitless text.

CCN(CC)C(C)CN1c2ccccc2Sc2ccccc21.Cl (stereo not drawn) : 46

Item: COc1ccc2c(=O)cc(-c3ccccc3OC)oc2c1 | NORMALIZED SGLT1 ACTIVITY (%): 139

Item: CC(=O)[O][Hg][c]1ccccc1 | NORMALIZED SGLT1 ACTIVITY (%): 4

Item: C[C@H]1[C@H](C)CC[C@]2(C(=O)O)CC[C@]3(C)C(=CC[C@@H]4[C@@]5(C)CC[C@H](O)C(C)(C)[C@@H]5CC[C@]43C)[C@H]12 | NORMALIZED SGLT1 ACTIVITY (%): 84

Item: OC[C@H]1O[C@@H](n2cnc3c(NCc4ccco4)ncnc32)[C@H](O)[C@@H]1O | NORMALIZED SGLT1 ACTIVITY (%): 142

Item: CN(C)CCCN1c2ccccc2Sc2ccc(C(F)(F)F)cc21.Cl | NORMALIZED SGLT1 ACTIVITY (%): 62
